system: 5-hydroxytryptamine receptor 2A (Homo sapiens) (UniProt P28223)
Sequence (P28223 whole entry, looked up): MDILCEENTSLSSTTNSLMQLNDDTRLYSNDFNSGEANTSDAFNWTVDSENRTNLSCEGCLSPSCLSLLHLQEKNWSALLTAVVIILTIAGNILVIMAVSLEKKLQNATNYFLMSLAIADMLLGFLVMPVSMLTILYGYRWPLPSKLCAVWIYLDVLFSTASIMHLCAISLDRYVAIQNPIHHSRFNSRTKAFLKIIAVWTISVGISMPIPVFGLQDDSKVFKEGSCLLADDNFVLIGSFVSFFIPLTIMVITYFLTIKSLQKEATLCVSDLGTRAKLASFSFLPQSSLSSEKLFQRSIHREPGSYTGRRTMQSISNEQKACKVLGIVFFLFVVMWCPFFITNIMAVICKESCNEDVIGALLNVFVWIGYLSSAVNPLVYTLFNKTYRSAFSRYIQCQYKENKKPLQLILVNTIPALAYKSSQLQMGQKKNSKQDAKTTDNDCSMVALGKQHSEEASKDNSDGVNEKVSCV
assay-details: 5-hydroxytryptamine receptor 2A (HTR2A) small molecule agonists, cell-based qHTS assay (AID 1963587); also: nearly all actives have a fitted effect of over 30% in size
condition: HTR2A-CHO cells, calcium flux fluorescence, agonist mode; series mostly up to 76.8 µM
Results filed as inconclusive are left out. Active and inactive are the calls of the source. Calls follow the shape of the full dose curve.
Hi there, use one of these labels in your reply, thanks! 1 = active, 0 = inactive

Problem: For CCCCCCCOC(=O)c1ccc(O)cc1 , which call appears in the assay record?
Solution: 1

Problem: Okay, and C/C=C/C=C/C=O ?
Solution: 0

Problem: Okay, and C=CC(C)(C)CC(=O)OC ?
Solution: 0

Problem: Okay, and CCCCNC(=S)NCCCC ?
Solution: 0

Problem: Okay, and CC/C=C1/OC(=O)c2ccccc21 ?
Solution: 0

Problem: Okay, and C=C(C)C1CCC(C)(O)CC1 (centres undefined) ?
Solution: 0

Problem: Okay, and CCCCCCCCCCCCCCC ?
Solution: 0

Problem: Okay, and CCCCOC(=O)CCCCC(=O)OCCCC ?
Solution: 0

Problem: Okay, and CCCCCCCC/C=C\CCCCCCCC(=O)OCCOC(=O)CCCCCCC/C=C\CCCCCCCC ?
Solution: 0

Problem: Okay, and CCOC(=O)c1ccccc1C(=C1C=C(Br)C(=O)C(Br)=C1)c1cc(Br)c(O)c(Br)c1 ?
Solution: 0

Problem: Okay, and NC(CCC(=O)O)C(=O)O (centres undefined) ?
Solution: 0

Problem: Okay, and Oc1ccc2c(c1)Cc1ccccc1-2 ?
Solution: 0

Problem: Okay, and COc1ccc(S(=O)(=O)Nc2nnc(CC(C)C)s2)cc1 ?
Solution: 0

Problem: Okay, and S=C([S-])NCCNC(=S)[S-].S=C([S-])NCCNC(=S)[S-].[Mn+2].[Zn+2] ?
Solution: 0

Problem: Okay, and O=C(O)C1(C(=O)Nc2ccc(Cl)cc2Cl)CC1 ?
Solution: 0

Problem: Okay, and C=C(C)c1cccc(C(=C)C)c1 ?
Solution: 0

Problem: Okay, and CCNCCO ?
Solution: 0

Problem: Okay, and COc1cc(C(C)=O)ccc1OCCCN1CCC(c2noc3cc(F)ccc23)CC1 ?
Solution: 0

Problem: Okay, and CC(CN(C)C)CN1c2ccccc2CCc2ccccc21 (centres undefined) ?
Solution: 0

Problem: Okay, and Cc1nc2ccccc2c(=O)o1 ?
Solution: 0

Problem: Okay, and CC(=O)N[C@@H](CCC(=O)O)C(=O)O ?
Solution: 0

Problem: Okay, and CCOC(=O)CC(=O)C(=O)OCC ?
Solution: 0

Problem: Okay, and CC1=C(/C=C/C(C)=C/C=C/C(C)=C/C=O)C(C)(C)CCC1 ?
Solution: 0

Problem: Okay, and CCCCCCOC(=O)CCCCCCCC(=O)OCCCCCC ?
Solution: 0

Problem: Okay, and Nc1cc(Cl)cc(S(=O)(=O)O)c1O ?
Solution: 0

Problem: Okay, and CCO[Si](CC(C)C)(OCC)OCC ?
Solution: 0

Problem: Okay, and CC(C)=CCCC(C)CCOC=O (centres undefined) ?
Solution: 0

Problem: Okay, and C/C=C/C(=O)C1=C(C)CCCC1(C)C ?
Solution: 0

Problem: Okay, and O=C(OCC(COC(=O)c1cccnc1)(COC(=O)c1cccnc1)COC(=O)c1cccnc1)c1cccnc1 ?
Solution: 0
